# Tested on: 616215-338-R-J1-PDC complex spheroid viability;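 further: spheroids exposed to compounds for one week before readout; percent viability relative to DMSO vehicle wells taken as 100%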
# ASSAY_EXPLANATION: Anticancer human tumor 616215-338-R-J1-PDC patient-derived colon adenocarcinoma cell line growth inhibition [POLQ]
# MEASUREMENT_SETUP: second compound 0.0316 µM; first compound 1 µM; stronger effect = lower value
Measured viability, T/C, listed per entry for reference.
ENDPOINT_LABEL: viability, T/C (%)

MOLECULE	ENDPOINT_LABEL	RECORDED_NUMBER
COc1ccc([C@@H](O)c2cc(-c3ncnc4cc(N5CCOCC5)ccc34)c(F)cc2Cl)nn1 + Cc1cccc(N(C)C(=O)C2C(O)CCN2c2nc(C)cc(C(F)(F)F)c2C#N)c1	viability, T/C	113
CC1COCCN1c1cc(C2(O)CC3CCC(C2)O3)c2cnn(-c3ccn[nH]3)c2n1 (stereo unspecified) + Cc1cccc(N(C)C(=O)C2C(O)CCN2c2nc(C)cc(C(F)(F)F)c2C#N)c1	viability, T/C	65.3
C=CC(=O)N1CCN(c2nc(=O)n(-c3c(C)ccnc3C(C)C)c3nc(-c4c(O)cccc4F)c(F)cc23)C(C)C1 (stereo unspecified) + Nc1ccc(C#CCN(C(=O)Cc2ncc(C(F)(F)F)cc2C(F)(F)F)c2ccc(F)cc2)nn1	viability, T/C	99.6
C=CCn1c(=O)c2cnc(Nc3ccc(N4CCN(C)CC4)cc3)nc2n1-c1cccc(C(C)(C)O)n1 + COC1C(OC(N)=O)C(O)C(Oc2ccc3c(O)c(NC(=O)c4ccc(O)c(CC=C(C)C)c4)c(=O)oc3c2C)OC1(C)C	viability, T/C	91.8
CC(C)n1c(=O)n(C)c2cnc3cc(F)c(-c4ccc(OCCCN5CCCCC5)nc4)cc3c21 + Cc1cccc(N(C)C(=O)C2C(O)CCN2c2nc(C)cc(C(F)(F)F)c2C#N)c1	viability, T/C	111
CCc1cc2c(N3CCc4c(cc(Cn5ccnc5)cc4-c4cn(C)nc4C(F)(F)F)C3=O)cc(C)nc2c(OC)n1 + COC1C(OC(N)=O)C(O)C(Oc2ccc3c(O)c(NC(=O)c4ccc(O)c(CC=C(C)C)c4)c(=O)oc3c2C)OC1(C)C	viability, T/C	110
CNCc1ccc(-c2[nH]c3cc(F)cc4c3c2CCNC4=O)cc1 + Nc1ccc(C#CCN(C(=O)Cc2ncc(C(F)(F)F)cc2C(F)(F)F)c2ccc(F)cc2)nn1	viability, T/C	104
O=C(Nc1ccc(O)c(NS(=O)(=O)c2ccc(F)cc2)c1)c1ccc(-c2ccccc2)cc1 + Cc1cccc(N(C)C(=O)C2C(O)CCN2c2nc(C)cc(C(F)(F)F)c2C#N)c1	viability, T/C	93.7
CC1COCCN1c1cc(C2(O)CC3CCC(C2)O3)c2cnn(-c3ccn[nH]3)c2n1 (stereo unspecified) + Nc1ccc(C#CCN(C(=O)Cc2ncc(C(F)(F)F)cc2C(F)(F)F)c2ccc(F)cc2)nn1	viability, T/C	37.1
CCc1c2c(nc3ccc(O)cc13)-c1cc3c(c(=O)n1C2)COC(=O)[C@]3(O)CC + Nc1ccc(C#CCN(C(=O)Cc2ncc(C(F)(F)F)cc2C(F)(F)F)c2ccc(F)cc2)nn1	viability, T/C	9.67
O=C(c1cc(Cc2n[nH]c(=O)c3ccccc23)ccc1F)N1CCN(C(=O)C2CC2)CC1 + Nc1ccc(C#CCN(C(=O)Cc2ncc(C(F)(F)F)cc2C(F)(F)F)c2ccc(F)cc2)nn1	viability, T/C	99.9
